System: Streptococcus salivarius
MEASUREMENT_NOTES: growth AUC relative to DMSO control (median of replicates) (fraction); higher = more growth (less inhibition), active = hit call of the paper
STUDY_CONDITIONS: 20 µM; 24 h
QUANTITY: growth AUC

COMPOUND: CCCOc1nc2ccc(I)cc2c(=O)n1CCC
NUMERIC_RESULT: 0.994
--
COMPOUND: CC(C)N(C(=O)CS(=O)CC(=O)O)c1ccc(F)cc1 (stereo not drawn)
NUMERIC_RESULT: 0.948
--
COMPOUND: CC(C)(NC(=O)NCc1ccccc1Cl)c1ccccc1
NUMERIC_RESULT: 1
